Provenance of the data: patent US20090030024A1

test: logP determination by retention times (calibration with alkan-2-ones); details: HPLC, reversed-phase C 18, EEC Directive 79/831 Annex V.A8; method *: 40° C., 0.1% aqueous formic acid and acetonitrile, linear gradient 10% to 95% acetonitrile
Marks after values point to notes of the source that are not given here.
property-name: logP

{"columns": ["smiles-record", "logP"],
 "data": [
  ["Cc1nc2c(s1)-c1nc(Nc3ccc(O)cc3)ncc1CC2", "1.41*"],
  ["Cc1nc(NC(C)(C)C)sc1-c1ccnc(Nc2cccc(O)c2)n1", "1.82*"],
  ["CNc1nc(C)c(-c2ccnc(Nc3ccccc3)n2)s1", "1.61*"],
  ["Cc1nc(NC(C)(C)C)sc1-c1ccnc(Nc2ccc(O)cc2)n1", "1.67*"]
]}

Here are 3 compounds. What values of logP were reported for them?
1. COc1cccc(Nc2nccc(-c3sc(N(C)C)nc3C)n2)c1
2. Cc1cc(Nc2nccc(-c3sc(N(C)C)nc3C)n2)ccc1F
3. CC(=O)c1cccc(Nc2nccc(-c3sc(N(C)C)nc3C(F)(F)F)n2)c1

1.98*
2.22*
1.91*
